Data provenance: patent US12331051B2

Target: UniProt:P35348
Sequence (P35348 whole entry): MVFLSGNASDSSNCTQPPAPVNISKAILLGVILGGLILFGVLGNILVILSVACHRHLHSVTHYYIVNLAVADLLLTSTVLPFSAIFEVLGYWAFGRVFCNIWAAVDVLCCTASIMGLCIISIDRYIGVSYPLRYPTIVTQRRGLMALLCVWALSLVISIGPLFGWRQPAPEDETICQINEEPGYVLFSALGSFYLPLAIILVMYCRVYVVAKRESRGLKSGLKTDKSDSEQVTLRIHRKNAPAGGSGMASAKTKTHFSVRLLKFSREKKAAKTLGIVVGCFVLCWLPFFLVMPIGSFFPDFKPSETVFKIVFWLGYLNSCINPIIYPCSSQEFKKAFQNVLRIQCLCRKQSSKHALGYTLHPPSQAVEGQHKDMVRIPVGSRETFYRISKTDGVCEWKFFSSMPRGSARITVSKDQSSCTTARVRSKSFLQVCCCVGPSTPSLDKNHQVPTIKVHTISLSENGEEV
Experiment: Functional assay in HEK-293 cells (Ca2+ flux)
pIC50: −log10 of the molar value.
result.type: pIC50

molecule: CCN(CC)C(=O)[C@@H]1C=C2c3cccc4[nH]c(Br)c(c34)C[C@H]2N(C)C1 [E559]
tested.on: UniProt:P35348
test.value: < 5.00

---

Target: UniProtKB P08908
Sequence (P08908 1-422): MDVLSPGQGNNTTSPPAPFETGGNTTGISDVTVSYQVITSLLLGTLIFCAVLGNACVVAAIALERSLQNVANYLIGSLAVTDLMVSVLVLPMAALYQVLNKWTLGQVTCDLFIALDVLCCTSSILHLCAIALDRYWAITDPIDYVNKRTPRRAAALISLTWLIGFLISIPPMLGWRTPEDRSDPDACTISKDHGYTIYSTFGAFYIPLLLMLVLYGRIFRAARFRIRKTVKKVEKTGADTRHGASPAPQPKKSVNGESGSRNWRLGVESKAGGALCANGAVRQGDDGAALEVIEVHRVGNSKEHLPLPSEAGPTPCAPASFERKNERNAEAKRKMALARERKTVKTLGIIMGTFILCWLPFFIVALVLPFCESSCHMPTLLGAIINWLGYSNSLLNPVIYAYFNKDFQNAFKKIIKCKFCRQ
Assay: Functional assay in HEK-293 cells (Ca2+ flux)
result.type: EC50 (µM)

chemical.smiles: CCN(CC)C(=O)[C@@H]1C=C2c3cccc4[nH]c(Br)c(c34)C[C@H]2N(C)C1
result.unit: µM
test.value: 3
